variants and their reported self-cleavage kobs at 160 uM GlcN6P
B1: glmS ribozyme (parent)
chain: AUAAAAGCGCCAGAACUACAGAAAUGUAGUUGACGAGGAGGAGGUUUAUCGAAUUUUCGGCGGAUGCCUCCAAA

- Variants of: B1
- assayText: self-cleavage kobs at 160 uM GlcN6P; higher = faster cleavage; RNA array
- measurementParameters: with glucosamine-6-phosphate
Fewer inactive variants are shown than the library holds.

A selection of reference data follows.
G43A G44A U47A    < 1e-05 s⁻¹
G29A G40C U55A U56G C67U    < 1e-05 s⁻¹
A33U G37C U46C    < 1e-05 s⁻¹

Consider the variant A14U G35C U49G and give its measured self-cleavage kobs at 160 uM GlcN6P. < 1e-05 s⁻¹

Consider the variant G13U C16U C19A G40U and give its measured self-cleavage kobs at 160 uM GlcN6P. < 1e-05 s⁻¹

Consider the variant A36G A42U and give its measured self-cleavage kobs at 160 uM GlcN6P. < 1e-05 s⁻¹

Consider the variant C11U G38A G41A A42G and give its measured self-cleavage kobs at 160 uM GlcN6P. < 1e-05 s⁻¹
